Ki, Non-receptor tyrosine-protein kinase TYK2 (Homo sapiens), per-entry values.
Readout: Ki (nM)

I. O=C(Nc1nccc2cc(-c3c(Cl)cccc3Cl)ccc12)C1CC1
II. Cc1cc(Nc2nccc3nc(-c4c(Cl)cccc4Cl)[nH]c23)nc(N(C)C)n1
III. CN(C)c1cc(Nc2nccc3nc(-c4c(Cl)cccc4Cl)[nH]c23)ncn1
Reorder the list: decreasing Ki. Answer format: the labels, in the requested order.
I, II, III

a. O=C(Nc1nccc2oc(-c3c(Cl)cccc3Cl)nc12)C1CC1
b. Cn1c(-c2c(Cl)cccc2Cl)nc2c(NC(=O)C3CC3)nccc21
Hi there, can you help? I need to know whether a or b has lower measured Ki. Give the label of your selection.
b
(b: 13 nM, a: 20 nM)

I. Cn1c(-c2c(Cl)cccc2Cl)nc2ccnc(NC(=O)C3CC3)c21
II. O=C(Nc1nccc2nc(-c3c(Cl)cccc3Cl)oc12)C1CC1
Which value of Ki is numerically greater: that of I or that of II ? Give the label of your selection.
I

###

Ki, Tyrosine-protein kinase JAK2 (Homo sapiens), per-entry values.
Readout: Ki (nM)

a. Cc1nccc(Nc2nccc3nc(-c4c(Cl)cccc4Cl)[nH]c23)n1
b. CN(C)c1cc(Nc2nccc3nc(-c4c(Cl)cccc4Cl)[nH]c23)ncn1
c. N#Cc1ccnc(Nc2nccc3nc(-c4c(Cl)cccc4Cl)[nH]c23)c1
Put these in order: smallest Ki first, largest last. Answer format: the labels, in the requested order.
b, c, a
(b: 34 nM, c: 93 nM, a: 440 nM)

###

- Target: Tyrosine-protein kinase JAK2 (Homo sapiens)
pKi: −log10 of the molar value.
Readout: pKi

P. Clc1cccc(Cl)c1-c1nc2ccnc(Nc3ccncn3)c2[nH]1
Q. OCCN1CCN(c2cc(Nc3nccc4nc(-c5c(Cl)cccc5Cl)[nH]c34)ncn2)CC1
R. O=C(Nc1nccc2nn(-c3c(Cl)cccc3Cl)cc12)C1CC1
S. Cc1cc(Nc2nccc3nc(-c4c(Cl)cccc4Cl)[nH]c23)nc(N(C)C)n1
T. O=C(Nc1cc2nc(-c3c(Cl)cccc3Cl)[nH]c2cn1)C1CC1
Reorder the list: decreasing pKi. Answer format: the labels, in the requested order.
Q, P, R, S, T
(Q: 8.00, P: 7.02, R: 6.72, S: 6.31, T: 5.49)

###

- Measurement description: Protein binding in human plasma
- Format: ADME, cell-free
- Measurement context: read-out: PPB (converted)
Readout: fraction unbound
API doc: respond with a numeric literal and nothing else, no unit.

Quick one: fraction unbound of `Cc1cc(Nc2nccc3nc(-c4c(Cl)cc(C#N)cc4Cl)[nH]c23)ncn1` ?
0.028

###

- Measurement description: Clearance in rat
- Format: ADME
- Measurement context: in vivo
Readout: clearance (mL/min/kg)
The response must be a number in mL/min/kg with no trailing unit.

Quick one: clearance of `Cc1cc(Nc2nccc3nc(-c4c(Cl)cc(C#N)cc4Cl)[nH]c23)ncn1` ?
5.1

###

- Target: Tyrosine-protein kinase JAK1 (Homo sapiens, UniProt P23458)
- Sequence (P23458 whole entry): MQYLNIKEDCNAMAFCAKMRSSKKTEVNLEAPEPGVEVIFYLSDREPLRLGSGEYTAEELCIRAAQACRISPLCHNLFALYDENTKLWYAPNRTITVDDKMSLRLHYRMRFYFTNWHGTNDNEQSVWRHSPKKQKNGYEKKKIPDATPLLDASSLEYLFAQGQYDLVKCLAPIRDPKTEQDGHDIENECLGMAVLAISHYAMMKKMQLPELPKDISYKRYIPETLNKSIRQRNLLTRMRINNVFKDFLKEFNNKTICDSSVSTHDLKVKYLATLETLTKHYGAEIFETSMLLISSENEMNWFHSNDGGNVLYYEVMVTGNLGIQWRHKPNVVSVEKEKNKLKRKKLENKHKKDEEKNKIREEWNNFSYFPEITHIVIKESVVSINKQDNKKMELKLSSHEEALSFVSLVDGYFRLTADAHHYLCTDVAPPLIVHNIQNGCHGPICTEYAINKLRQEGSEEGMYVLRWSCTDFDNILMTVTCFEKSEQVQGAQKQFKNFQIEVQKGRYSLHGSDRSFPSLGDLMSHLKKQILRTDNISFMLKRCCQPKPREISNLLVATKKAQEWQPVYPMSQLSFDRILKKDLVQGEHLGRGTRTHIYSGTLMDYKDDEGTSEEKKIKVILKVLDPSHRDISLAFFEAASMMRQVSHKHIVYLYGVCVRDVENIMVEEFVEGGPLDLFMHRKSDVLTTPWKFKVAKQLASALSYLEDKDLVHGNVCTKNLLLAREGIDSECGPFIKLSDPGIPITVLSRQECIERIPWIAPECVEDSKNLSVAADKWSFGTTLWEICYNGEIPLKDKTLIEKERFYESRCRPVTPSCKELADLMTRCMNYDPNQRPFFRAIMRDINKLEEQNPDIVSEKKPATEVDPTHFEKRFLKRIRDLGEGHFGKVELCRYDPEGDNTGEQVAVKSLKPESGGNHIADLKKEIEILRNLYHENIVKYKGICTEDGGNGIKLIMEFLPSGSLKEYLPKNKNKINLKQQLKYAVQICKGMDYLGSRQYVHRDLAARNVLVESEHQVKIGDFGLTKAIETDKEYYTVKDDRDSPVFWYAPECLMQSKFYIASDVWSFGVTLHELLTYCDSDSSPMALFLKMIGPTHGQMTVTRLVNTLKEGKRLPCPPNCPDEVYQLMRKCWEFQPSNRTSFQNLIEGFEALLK
Readout: Ki (nM)
The response must be a number in nM with no trailing unit.

Form field: Ki recorded for `Cc1cc(Nc2nccc3nc(-c4c(Cl)cc(C#N)cc4Cl)[nH]c23)ncn1` with Tyrosine-protein kinase JAK1 (Homo sapiens, UniProt P23458) (enter value)
24

###

- Measurement description: Efflux ratio of permeability from basolateral to apical over apical to basolateral side in MDCK cells
- Assay type: ADME, cell-based, Canis lupus familiaris
- Measurement context: dog
Readout: efflux ratio
API doc: respond with a numeric literal and nothing else, no unit.

Quick one: efflux ratio of `Cc1cc(Nc2nccc3nc(-c4c(Cl)cc(C#N)cc4Cl)[nH]c23)ncn1` ?
1.1

###

- Species on record: Homo sapiens
- Measurement description: Selectivity ratio of Ki for JAK2 (unknown origin) to Ki for TYK2 (unknown origin)
Readout: Ratio Ki

Quick one: Ratio Ki of `O=C(Nc1nccc2cc(-c3c(Cl)cccc3Cl)oc12)C1CC1` ?
12

Quick one: Ratio Ki of `OCCN1CCN(c2cc(Nc3nccc4nc(-c5c(Cl)cccc5Cl)[nH]c34)ncn2)CC1` ?
8.3

Quick one: Ratio Ki of `O=C(Nc1cc2cc(-c3c(Cl)cccc3Cl)ccc2cn1)C1CC1` ?
0.4

Quick one: Ratio Ki of `Clc1cccc(Cl)c1-c1nc2ccnc(Nc3cc(N4CCCC4)ncn3)c2[nH]1` ?
32

a. O=C(Nc1cc2nc(-c3c(Cl)cccc3Cl)[nH]c2cn1)C1CC1
b. N#Cc1cc(Cl)c(-c2nc3ccnc(Nc4cc(N)ncn4)c3[nH]2)c(Cl)c1
Hi there, can you help? I need to know whether a or b has lower measured Ratio Ki. Give the label of your selection.
a

a. CNc1cc(Nc2nccc3nc(-c4c(Cl)cc(C#N)cc4Cl)[nH]c23)ncn1
b. OC1CCN(c2cc(Nc3nccc4nc(-c5c(Cl)cccc5Cl)[nH]c34)ncn2)CC1
Which value of Ratio Ki is numerically greater: that of a or that of b ? Give the label of your selection.
a

A. Clc1cccc(Cl)c1-c1nc2ccnc(Nc3cc(N4CCN(C5COC5)CC4)ncn3)c2[nH]1
B. Cn1c(-c2c(Cl)cccc2Cl)nc2ccnc(NC(=O)C3CC3)c21
C. Cc1cc(Nc2nccc3nc(-c4c(Cl)cccc4Cl)[nH]c23)nc(N(C)C)n1
D. Cc1cc(Nc2nccc3nc(-c4c(Cl)cc(C#N)cc4Cl)[nH]c23)ncn1
In this exercise, place the 4 molecules in ascending sequence of their recorded Ratio Ki. Answer format: the labels, in the requested order.
A, D, C, B
(A: 12, D: 31, C: 49, B: 111)

1. Clc1cccc(Cl)c1-c1nc2ccnc(Nc3cc(N4CCOCC4)ncn3)c2[nH]1
2. Cc1nccc(Nc2nccc3nc(-c4c(Cl)cccc4Cl)[nH]c23)n1
3. CNc1cc(Nc2nccc3nc(-c4c(Cl)cccc4Cl)[nH]c23)ncn1
4. O=C(Nc1nccc2oc(-c3c(Cl)cccc3Cl)nc12)C1CC1
5. O=C(Nc1nccc2nn(-c3c(Cl)cccc3Cl)cc12)C1CC1
In this exercise, place the 5 molecules in ascending sequence of their recorded Ratio Ki. Answer format: the labels, in the requested order.
1, 4, 3, 2, 5
(1: 11, 4: 29, 3: 52, 2: 86, 5: 142)

###

- Target: Tyrosine-protein kinase JAK2 (Homo sapiens)
- Measurement description: Inhibition of JAK2 (unknown origin) assessed as reduction in EPO-mediated STAT5 phosphorylation by cell based readout assay
Readout: EC50 (nM)

1. CN(C)c1cc(Nc2nccc3nc(-c4c(Cl)cccc4Cl)[nH]c23)ncn1
2. COc1cc(Nc2nccc3nc(-c4c(Cl)cccc4Cl)[nH]c23)ncn1
Which value of EC50 is numerically greater: that of 1 or that of 2 ? Give the label of your selection.
2

###

- Target: Tyrosine-protein kinase JAK2 (Homo sapiens, UniProt O60674)
- Sequence (O60674 whole entry): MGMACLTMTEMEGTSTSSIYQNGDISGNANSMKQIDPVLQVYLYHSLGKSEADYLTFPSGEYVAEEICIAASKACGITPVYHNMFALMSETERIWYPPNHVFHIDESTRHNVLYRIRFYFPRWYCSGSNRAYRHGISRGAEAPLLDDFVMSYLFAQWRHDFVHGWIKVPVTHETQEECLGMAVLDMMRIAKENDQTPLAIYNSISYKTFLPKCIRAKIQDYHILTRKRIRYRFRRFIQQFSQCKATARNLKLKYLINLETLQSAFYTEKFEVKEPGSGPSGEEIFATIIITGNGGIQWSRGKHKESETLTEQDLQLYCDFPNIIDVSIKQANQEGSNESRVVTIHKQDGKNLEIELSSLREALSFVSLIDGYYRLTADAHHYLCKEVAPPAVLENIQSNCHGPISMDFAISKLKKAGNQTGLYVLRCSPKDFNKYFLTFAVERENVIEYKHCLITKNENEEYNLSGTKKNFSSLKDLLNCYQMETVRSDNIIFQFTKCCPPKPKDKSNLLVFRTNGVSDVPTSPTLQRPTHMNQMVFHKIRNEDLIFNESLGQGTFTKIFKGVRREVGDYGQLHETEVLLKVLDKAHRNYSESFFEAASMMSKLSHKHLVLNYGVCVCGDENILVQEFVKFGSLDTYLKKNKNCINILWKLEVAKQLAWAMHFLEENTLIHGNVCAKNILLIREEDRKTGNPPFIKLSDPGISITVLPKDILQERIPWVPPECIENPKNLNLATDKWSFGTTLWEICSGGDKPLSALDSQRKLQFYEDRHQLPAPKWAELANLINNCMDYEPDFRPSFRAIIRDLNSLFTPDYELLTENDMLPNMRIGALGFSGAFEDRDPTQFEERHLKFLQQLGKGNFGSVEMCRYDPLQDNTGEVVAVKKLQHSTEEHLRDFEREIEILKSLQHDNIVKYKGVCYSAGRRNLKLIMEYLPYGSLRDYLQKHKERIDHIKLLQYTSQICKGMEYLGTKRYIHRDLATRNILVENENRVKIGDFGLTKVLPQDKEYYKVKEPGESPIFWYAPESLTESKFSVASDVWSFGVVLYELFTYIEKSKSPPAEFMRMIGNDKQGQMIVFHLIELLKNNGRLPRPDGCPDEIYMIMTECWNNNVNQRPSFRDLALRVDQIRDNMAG
- Measurement description: Inhibition of JAK2 (unknown origin) assessed as reduction in EPO-mediated STAT5 phosphorylation by cell based readout assay
Readout: EC50 (µM)

Quick one: EC50 of `OCCN1CCN(c2cc(Nc3nccc4nc(-c5c(Cl)cccc5Cl)[nH]c34)ncn2)CC1` ?
1.1

Quick one: EC50 of `Clc1cccc(Cl)c1-c1nc2ccnc(Nc3cc(N4CCN(C5COC5)CC4)ncn3)c2[nH]1` ?
0.82

Quick one: EC50 of `Clc1cccc(Cl)c1-c1nc2ccnc(Nc3cc(N4CCCC4)ncn3)c2[nH]1` ?
1

Quick one: EC50 of `Nc1cc(Nc2nccc3nc(-c4c(Cl)cccc4Cl)[nH]c23)ncn1` ?
1.3

Quick one: EC50 of `OC1CCN(c2cc(Nc3nccc4nc(-c5c(Cl)cccc5Cl)[nH]c34)ncn2)CC1` ?
1.1

P. Cc1cc(Nc2nccc3nc(-c4c(Cl)cc(C#N)cc4Cl)[nH]c23)ncn1
Q. CNc1cc(Nc2nccc3nc(-c4c(Cl)cc(C#N)cc4Cl)[nH]c23)ncn1
R. N#Cc1ccnc(Nc2nccc3nc(-c4c(Cl)cccc4Cl)[nH]c23)c1
Ranking field: EC50; order: falling. Answer format: the labels, in the requested order.
R, P, Q

1. Clc1cccc(Cl)c1-c1nc2ccnc(Nc3cc(N4CCOCC4)ncn3)c2[nH]1
2. N#Cc1cc(Cl)c(-c2nc3ccnc(Nc4cc(N)ncn4)c3[nH]2)c(Cl)c1
Which value of EC50 is numerically greater: that of 1 or that of 2 ? Give the label of your selection.
2
(2: 1.6 µM, 1: 0.46 µM)

###

- Measurement description: Clearance in dog
- Type: ADME, Canis lupus familiaris
- Measurement context: in vivo
Readout: clearance (mL/min/kg)
The response must be a number in mL/min/kg with no trailing unit.

Quick one: clearance of `Cc1cc(Nc2nccc3nc(-c4c(Cl)cc(C#N)cc4Cl)[nH]c23)ncn1` ?
3.6
